- System: UACC-62
- assay procedure: NCI tumour cell line growth inhibition, 48 h
Calls of active or inactive are those of the source. Rule as the data show it: active = GI50 up to about 1.1 µM and inactive = higher.
A correct response names exactly one class from active, inactive

Past entries and their recorded results:
[in] What outcome does the record of this test show for `CCCCC#COS(=O)(=O)c1ccc(C)cc1` ?
[out] inactive

[in] I would be grateful if you could indicate the recorded call for CCCCCCCCCCCc1noc2c1C(=O)C(O)CC2 (configuration not stated) .
[out] inactive

[in] Check the results log: what was the call for CCC(C#N)NCc1cccc(CNC(C#N)CC)c1 (configuration not stated) ?
[out] inactive

[in] Hi team, can someone confirm the assay call for `Cc1cc(Cc2c(C)c(C)c(Cc3cc(C)cc(C(C)(C)C)c3O)c(C)c2C)c(O)c(C(C)(C)C)c1` ?
[out] inactive

[in] Status in this test for NNC1=Nc2ccc(Cl)cc2C(=S)N2CSCC12 (configuration not stated) ?
[out] inactive

More entries:
[in] Name the outcome recorded for `COc1cc([C@@]23OC[C@@H]4[C@@H](OC[C@@H]42)c2cc4c(cc23)OCO4)cc(OC)c1OC` in the assay.
[out] active

[in] Given `CC(C)=CCC[C@@H](C)C1=C(N)C(=O)C(C)=C(O)C1=O` , state the outcome it received in this test.
[out] inactive

[in] So what was the verdict on `N=c1oc2cc(O)c(O)cc2cc1C(N)=O` in this test?
[out] inactive

[in] Hi, sorry to bother you, what did the test record for `S=c1nc2c(c[nH]1)C1c3ccccc3C2c2ccccc21` ?
[out] inactive

[in] # lookup: test call for `C=C1C(=O)O[C@H]2C(=O)[C@H](C)CCC[C@@](C)(O)/C=C\C[C@@]3(C)O[C@@H]3C[C@@H]12`
[out] inactive

[in] # outcome recorded in this test, key = `c1ccc2c(c1)ncn2CCn1ccnc1`
[out] inactive

[in] Query: recorded result category for COc1ccc(C)cc1C1CCC(=O)O1 (configuration not stated) in this test
[out] inactive

[in] Query: recorded result category for `Cc1nn(-c2ccccc2)c(C)c1/C=N/NC(=O)c1sc(=S)n(-c2ccccc2)c1N` in this test
[out] inactive

[in] Write down the call the test reported for this molecule. Item: `OCCc1ccsc1-c1sc(-c2cc(CCO)c(-c3sc(-c4cc(CCO)c(-c5sccc5CCO)s4)cc3CCO)s2)cc1CCO`
[out] inactive

[in] Could you check what this test reported for CCOC(=O)C1=C(C)N(NC(=O)c2ccccc2)C2(O)CCCC12C(=O)OCC (configuration not stated) ?
[out] inactive

[in] Per the records of this test, what outcome belongs to COc1ccc2c([nH]c3c(O)c(-c4c(C)cc5c([nH]c6c(CC=C(C)C)c(OC)ccc65)c4O)c(C)cc32)c1CC=C(C)C [BISMURRAYAFOLINE B] ?
[out] inactive

[in] What is the recorded call for this molecule in the test? `CSc1n[n+](C)cc(N)c1N`
[out] inactive

[in] How was `COc1ccc(/N=N/N2CCCC2)cc1` classified in this test?
[out] inactive

[in] For `CCNC(=O)Nc1cccc(NC(=O)NCC)n1` , which call appears in the assay record?
[out] inactive

[in] What did the test return for C=CCCCC1CCCNC1=S (configuration not stated) ?
[out] inactive

[in] Record request — test call for COc1ccc2c(=O)c(C)c(-c3ccccc3)oc2c1CN(C)C [DIMEFLINE]
[out] inactive

[in] Identify the outcome logged in this assay for the molecule shown: `CC1(C)CCc2cc3c(cc2O1)OCCC3=O`
[out] inactive

Data origin, for the record: ChEMBL document CHEMBL1201862
